Property: Off-Rate Ratio to that of EM0005-90c; scope: individual binders
Molecular target: human PD-L1/His fusion protein (human, UniProt Q9NZQ7 19-239)
Sequence (Q9NZQ7 19-239 limits assumed): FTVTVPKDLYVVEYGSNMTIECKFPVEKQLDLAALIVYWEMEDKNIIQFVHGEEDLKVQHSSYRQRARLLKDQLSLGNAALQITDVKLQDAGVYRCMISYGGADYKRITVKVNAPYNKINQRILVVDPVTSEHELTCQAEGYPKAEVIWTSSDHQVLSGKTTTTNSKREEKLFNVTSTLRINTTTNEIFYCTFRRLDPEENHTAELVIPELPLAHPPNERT
Experiment: BLI off-rate; test group 1
Procedure: Briefly, antibodies were characterized for affinities and binding kinetics by Octet®RED96 biolayer interferometry (Pall ForteBio LLC). Antibodies were captured by Anti-hIgG Fc Capture (AHC) Biosensors (Pall) at a concentration of 100 nM for 30 seconds. Sensors were then dipped into running buffer (1×pH 7.2 PBS, 0.05% Tween 20, 0.1% BSA) for 60 seconds to check baseline. Binding was measured by dipping sensors into a single concentration of recombinant human PD-L1/His fusion protein (Novoprotein). […]
Kindly answer with a numeric value in %, unit omitted.

[
  {
    "Binder": "HuEM0005-90-4 (antibody, human IgG1, V domains shown) VH: EVQLVQSGAEVKKPGASVKVSCKTSGYTFTSHSINWVRQATGQGLEWIGYMYIGNGYTEYNEKFKGRATLTSNTSISTAYMELSSLRSEDTAVYYCAKITPVVAPYVMDYWGQGTSVTVSS VL: DIQLTQSPSFLSASVGDRVTITCKASQDVGTAVAWYQQKPGKAPKLLIYWASTRHTGVPSRFSGSGSGTEFTLTISSLQPEDFATYYCQQYSSYPYTFGQGTKLEIK",
    "Off-Rate Ratio to that of EM0005-90c (%)": 97
  }
]

Moving on to the next binder.
Problem: Which Off-Rate Ratio to that of EM0005-90c reading was recorded for the binder HuEM0005-90-1 (antibody, human IgG1, V domains shown, measured without the G55A change) VH: EVQLVQSGAEVKKPGASVKVSCKASGYTFTSHSINWVRQATGQGLEWMGYMYIGNGYTEYNEKFKGRVTLTSNTSISTAYMELSSLRSEDTAVYYCAKITPVVAPYVMDYWGQGTSVTVSS VL: DIQLTQSPSFLSASVGDRVTITCKASQDVGTAVAWYQQKPGKAPKLLIYWASTRHTGVPSRFSGSGSGTEFTLTISSLQPEDFATYYCQQYSSYPYTFGQGTKLEIK ?
Solution: 102
